Tested on: U251 CNS
Assay: NCI tumour cell line growth inhibition, 48 h
parameter: TGI (µM)
Give the value in µM but do not write µM after it.

# count of solved cases: 4
{"compound": "O=Nc1c(-c2c(O)[nH]c3ccc(Br)cc23)[nH]c2ccccc12", "TGI (µM)": 23.1}
{"compound": "C[C@H]1COC2=C1C(=O)C(=O)c1c2ccc2c1CCCC2(C)C", "TGI (µM)": 27.4}
{"compound": "COc1cc(NC(=O)C2=C(N3CCOCC3)/C(=C/c3ccc(Cl)cc3)CC2)cc(OC)c1OC", "TGI (µM)": 59.7}
{"compound": "O=c1ccc2nc(-c3ccccn3)nn(-c3ccccc3)c-2c1", "TGI (µM)": 14.2}

Ask: Which TGI is reported for this compound? CN(C)CC/C(=N\Nc1ccc(Cl)cc1Cl)c1ccccc1
Result: 24.8

Ask: Which TGI is reported for this compound? CCN(CC)C(=S)[S][Bi]([S]C(=S)N(CC)CC)[S]C(=S)N(CC)CC
Result: 2.34

Ask: Which TGI is reported for this compound? Cc1ccc(Sc2cc3c(oc2=O)-c2ccccc2OC3O)cc1 (centres undefined)
Result: 42.3
